target: Macrophage migration inhibitory factor (Homo sapiens); assay: Inhibition of human recombinant MIF tautomerase activity using 4-hydroxyphenylpyruvate as substrate
pIC50: −log10 of the molar value.
experimental readout: pIC50

Observe how each entry below is paired with its result.
molecule=COc1ccc(-n2sc3ccc(F)cc3c2=O)cc1 observed_result=5.19
molecule=COc1cccc(-n2sc3c(F)cccc3c2=O)c1 observed_result=5.10

I. N#Cc1ccc2c(=O)n(-c3ccc(Cl)cc3)sc2c1
II. O=c1c2cccc(Cl)c2sn1-c1ccc(Cl)cc1
III. O=c1c2ccc(Br)cc2sn1-c1ccc(Cl)cc1
Hi! Can you put these in order of pIC50, lowest number first? Submit the labels in the order that the ranking request calls for.
III, II, I

###

target: Macrophage migration inhibitory factor (Homo sapiens); assay: Inhibition of human recombinant MIF tautomerase activity using 4-hydroxyphenylpyruvate as substrate
experimental readout: IC50 (µM)

Observe how each entry below is paired with its result.
molecule=O=c1c2cc(F)ccc2sn1-c1ccc(Cl)cc1 observed_result=5.6
molecule=N#Cc1ccc2sn(-c3ccc(Cl)cc3)c(=O)c2c1 observed_result=19
molecule=O=c1c2cccc(F)c2sn1-c1ccc(Cl)cc1 observed_result=2.8

A. O=c1c2cc(Br)ccc2sn1-c1ccc(Cl)cc1
B. COCc1cccc(-n2sc3cc(F)ccc3c2=O)c1
C. COc1cccc(-n2sc3cc(F)ccc3c2=O)c1
Ordering criterion: IC50; begin with the maximum. Submit the labels in the order that the ranking request calls for.
C, A, B
(C: 25 µM, A: 7.9 µM, B: 2.4 µM)

1. O=c1c2cc([N+](=O)[O-])ccc2sn1-c1ccc(Cl)cc1
2. CC(=O)OCc1cccc(-n2sc3cc(F)ccc3c2=O)c1
Of the two listed items, 1 and 2 , which carries the larger IC50 figure? Record your answer as the label of the chosen record.
1

###

Molecular target: Macrophage migration inhibitory factor (Homo sapiens)
Sequence (P14174 whole entry): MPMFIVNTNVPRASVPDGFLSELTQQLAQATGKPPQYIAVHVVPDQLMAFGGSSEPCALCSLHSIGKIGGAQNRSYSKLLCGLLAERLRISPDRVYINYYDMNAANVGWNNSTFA
Assay: Inhibition of human recombinant MIF tautomerase activity using 4-hydroxyphenylpyruvate as substrate
experimental readout: IC50 (µM)

Observe how each entry below is paired with its result.
molecule=O=c1c2cccc(F)c2sn1-c1cccc(O)c1 target_or_test_system="Macrophage migration inhibitory factor (Homo sapiens)" observed_result=5.9
molecule=O=c1c2ccc(F)cc2sn1-c1cccc(Cl)c1 target_or_test_system="Macrophage migration inhibitory factor (Homo sapiens)" observed_result=5
molecule=O=c1c2cc(F)c(F)cc2sn1-c1ccc(Cl)cc1 target_or_test_system="Macrophage migration inhibitory factor (Homo sapiens)" observed_result=4.9

A. O=c1c2ccc(F)c(F)c2sn1-c1ccc(Cl)cc1
B. COc1cccc(-n2sc3ccc(F)cc3c2=O)c1
Of the two listed items, A and B , which carries the larger IC50 figure? Record your answer as the label of the chosen record.
A
(A: 5.6 µM, B: 2.8 µM)
